// reported exon inclusion enrichment index for each item listed
B1: mRNA-splicing (parent)
chain: AGUUGCUGCUGGGAGCUCCAGCACAGUGAAAUGGACAGAAGGGCAGAGCAA

Variants of: B1
experiment description: exon inclusion enrichment index; higher = more inclusion; WT1 exon 5 minigene, HEK293

Here is how some variants turned out for exon inclusion enrichment index.
variant label	exon inclusion enrichment index
G5A C6G U7G C9A A14C G15C	0.000633
G5C C6G U7C U10C A25U	3.84
G5C C6A U7C G8A U10A G34C A35C	0.0037
C6A U7C C9A U10C G43C C44U	2.49
G5A C6U U7A G8U C9A A23U C24U	0.000794

Lab note: measured exon inclusion enrichment index of G5C C6U G8C C9U U10C A39G was 0.96

// field: exon inclusion enrichment index; key: G5A C6U U7A G8C C9U ; value = 0.218

Per the record, G5U G8U C9U C22U A23U has exon inclusion enrichment index of 0.0443

Looking up G28U A29U , I found its exon inclusion enrichment index recorded as 0.00946

Quick note, exon inclusion enrichment index for C6A U7C C9A U10C G43U landed at 2.81

exon inclusion enrichment index recorded for this variant, G5C C6A U7C G8A U10A A37C , is 0.426
